# assay_explanation: displacement of TO-PRO-1 from CAG DNA duplex, counter-screen for rCAG RNA repeat binder project, biochemical, fluorescence, TO-PRO-1 dye, d(CAG) DNA oligo (AID 652068);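 further: 0% = DNA dye mix with DMSO and 100% = 100 µM mitoxantrone; hits displace the dye from DNA and so lower well fluorescence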
# run_conditions: d(CAG) DNA oligo TO-PRO-1 dye displacement, at 3 µM, stronger effect = higher value
The campaign covered roughly 4,300 compounds. About 4,000 (93%) were called active. So high a share suggests a set chosen from earlier hits. Only a sample is shown.
endpoint: inhibition (%)
Give bare numbers, in %.

Recorded results for 10 compounds are shown here.
INSERT INTO measurements (compound, unit_spec, result_number) VALUES
  ('CCc1nnc(NS(=O)(=O)c2ccc(N=Cc3c(C)[nH]n(-c4ccc(C)cc4)c3=O)cc2)s1', '%', 32.2),
  ('O=C1c2cccc3cccc(c23)C(=O)N1CCCCCc1n[nH]c(=S)o1', '%', 6.52),
  ('CC(=N\NC(=O)c1cc(Br)ccc1O)/C(=N/O)C(=O)Nc1ccccc1', '%', 3.8),
  ('Cc1ccc(C(C)C)c(OCCSc2nc3ccccc3n2CC(=O)O)c1', '%', 10.7),
  ('Cc1ccc(NC(=S)NNC(=O)CSc2nnc(SCc3ccccc3Cl)s2)cc1', '%', 18.8),
  ('O=C(Nc1ccc2c(c1)CCC2)c1cccc(S(=O)(=O)Nc2ccccc2Cl)c1', '%', 10.7),
  ('Cc1cc(Br)cn2c(Cc3cccc(F)c3)c(-c3cccc(Br)c3)nc12', '%', 2.14),
  ('CCOC(=O)C1Nc2ccc(C(F)(F)F)cc2C2C=CCC12 (stereo not given)', '%', 9.84),
  ('Cc1ccc(-c2nn(-c3ccccc3)cc2/C=C2\SC(=S)N(CCCCCC(=O)O)C2=O)o1', '%', 28.4),
  ('Cc1cc(C)cc(OCC(=O)Nc2cc(NC(=O)COc3cc(C)cc(C)c3)cc(C(=O)O)c2)c1', '%', 39.1);

Batch: inhibition for all items listed.
1. CN(C(=O)COC(=O)c1cc(-c2ccco2)nc2ccccc12)C1CCS(=O)(=O)C1 (stereo not given)
2. COc1ccc(C(CNC(=O)c2cccc(S(=O)(=O)Nc3ccccc3Cl)c2)N2CCOCC2)cc1 (stereo not given)
3. Cc1ccc(-c2csc(C(C#N)=C(O)CN3CCN(C(=O)c4ccco4)CC3)n2)cc1
4. CCOc1cc(C)ccc1OCc1nnc(SCC(=O)Nc2cccc(C(=O)O)c2)n1-c1ccccc1
5. Cc1ccc(NC(=O)CSc2sc3c(O)cc(=O)[nH]c3c2C#N)cc1C
6. O=C(O)c1cccc(NC(=O)c2cc(-c3cccc(Cl)c3)nc3ccccc23)c1
7. CCn1cc(C(=O)NCC2COc3ccccc3O2)c2cc(OC)c(OC)cc2c1=O (stereo not given)
8. CCC(C)Cn1c(O)cc2nn(-c3nc4ccccc4s3)c(=O)c-2c1C (stereo not given)

stdout:
1: 13.2; 2: 27.5; 3: 18.7; 4: 11.8; 5: 11.8; 6: 14.3; 7: 0.88; 8: 30.4

Batch: inhibition for all items listed.
1. COc1ccc(Cl)cc1-n1c(=S)sc2c(=O)n(-c3ccc(F)cc3)c(SCC(=O)O)nc21
2. CN(C)S(=O)(=O)c1cccc(-c2nn(-c3ccccc3)cc2/C=C2\SC(=S)N(CC(=O)O)C2=O)c1

stdout:
1: 8.24; 2: 55.3
